# assayedTarget: T1, mIL1RAcP-Fc (murine, UniProt Q61730 21-359)
# T1 construct: also called P013_04; P013-04
# T1 sequence (looked up): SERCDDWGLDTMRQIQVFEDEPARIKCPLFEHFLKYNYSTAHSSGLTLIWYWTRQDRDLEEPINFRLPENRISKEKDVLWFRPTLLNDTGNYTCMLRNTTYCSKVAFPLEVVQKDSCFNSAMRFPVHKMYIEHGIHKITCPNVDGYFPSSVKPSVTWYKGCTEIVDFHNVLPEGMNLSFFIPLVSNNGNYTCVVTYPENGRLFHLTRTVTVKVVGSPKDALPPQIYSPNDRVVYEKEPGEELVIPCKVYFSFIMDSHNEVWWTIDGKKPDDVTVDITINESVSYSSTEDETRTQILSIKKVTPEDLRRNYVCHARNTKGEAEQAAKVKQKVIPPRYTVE
# testDetails: ELISA, primary supernatant, coated mu-IL-1RAcP-Fc
readoutLabel: mu-IL1RaP ELISA (OD)
Note: unit OD is implicit; provide only the numeric part.

binder	displayUnit	mu-IL1RaP ELISA (OD)
P013.S.01.B.D04 (antibody, V domains shown, rabbit monoclonal antibody; also called P013.A.00088.B09) VH: QEQLKESGGRLVTPGGSLTLTCTVSGFSLSIYAMGWFRQAPGKGLEWIGDIYPGSDSTWYASWAKGRFTISKTSTTVDLKITSPTTEDTATYFCAREIDAGYVGYGFDLWGQGTLVTVSS VL: AQALTQTPSSVSAAVGGTVTINCQSSQSVYSDYLAWYQQKPGQSPKLLIYKASKLASGVPSRFKGSGSGTEFTLTISGVQSDDAATYYCQATYYSVGWYRAFGGGTEVVVK	OD	0

Consider now this further binder.
Ask: Retrieve mu-IL1RaP ELISA (OD) measured for P013.S.01.B.E03 (antibody, V domains shown, rabbit monoclonal antibody; also called P013.A.00015.E03) VH: QSLEESGGRLVTPGTPLTLTCTASGFSITNYHISWVRQAPGKGLEWIGYIYAGRDFTYYANWAEGRFTISKTSTTVDLQVTVPTTEDTATYFCARDGGSPNWTLDLWGQGTLVTVSS VL: DVVMTQTPASVSEPVGGTVTINCQASESISDYLSWYQQKPGQPPKLLIYRASTLESGVSSRFKGSGSGTQFTLTISDLESADAATYYCQSNYYDSRGNAFGGGTEVVVK and print it.
Result: 0.1

The reported measurements were obtained from patent US20190106487A1.
